Listed here: items and their measured percentage of input antibody bound.
Target: T1, human glycophorin A on human red blood cells or red blood cell membranes (human, UniProt P02724 20-150)
T1 construct: whole, on cells; also called hRBC; human RBC membranes
T1 sequence (looked up): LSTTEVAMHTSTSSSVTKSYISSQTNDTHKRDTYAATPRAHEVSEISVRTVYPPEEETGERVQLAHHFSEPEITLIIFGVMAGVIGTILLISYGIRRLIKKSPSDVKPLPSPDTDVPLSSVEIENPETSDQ
Assay: Fab on intact human RBC, unbound Fab by ELISA; 20 min after 200-fold dilution

binder	valueUnits	percentage of input antibody bound
TPP-7778, affinity matured 6C12 Fab (Fab, V domains shown, Tested as Fab) VH: EVQLVQSGAEVKKPGASVKVSCKASGYTFTTYAIHWVRQAPGQGLEWMGYINPSSGYTRYNPKFKHRVTMTRDKSTSTAYMELRSLRSDDTAVYYCQTGTRDYWGQGTTVTVSS VL: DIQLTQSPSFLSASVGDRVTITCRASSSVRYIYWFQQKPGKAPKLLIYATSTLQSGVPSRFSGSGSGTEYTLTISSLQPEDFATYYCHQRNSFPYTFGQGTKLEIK	%	66
TPP-7783, affinity matured 6C12 Fab (Fab, V domains shown, Tested as Fab) VH: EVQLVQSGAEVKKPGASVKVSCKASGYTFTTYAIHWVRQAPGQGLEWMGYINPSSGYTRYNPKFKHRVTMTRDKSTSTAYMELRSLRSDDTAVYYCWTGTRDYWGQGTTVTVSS VL: DIQLTQSPSFLSASVGDRVTITCRASSSVRYIYWFQQKPGKAPKLLIYATSFRRSGVPSRFSGSGSGTEYTLTISSLQPEDFATYYCHQRNSFPYTFGQGTKLEIK	%	86
TPP-7796, affinity matured 6C12 Fab (Fab, V domains shown, Tested as Fab) VH: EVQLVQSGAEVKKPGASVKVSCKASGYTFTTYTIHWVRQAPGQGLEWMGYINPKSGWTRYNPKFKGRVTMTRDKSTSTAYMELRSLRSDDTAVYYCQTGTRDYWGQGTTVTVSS VL: DIQLTQSPSFLSASVGDRVTITCRASSSVSYIYWFQQKPGKAPKLLIYATSTLQSGVPSRFSGSGSGTEYTLTISSLQPEDFATYYCHQRNSFPYTFGQGTKLEIK	%	12
TPP-7790, affinity matured 6C12 Fab (Fab, V domains shown, Tested as Fab with a 6xHIS tag) VH: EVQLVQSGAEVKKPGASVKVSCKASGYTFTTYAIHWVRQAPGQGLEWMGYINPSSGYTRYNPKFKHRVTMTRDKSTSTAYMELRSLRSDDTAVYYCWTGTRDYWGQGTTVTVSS VL: DIQLTQSPSFLSASVGDRVTITCRASSSVRYIYWFQQKPGKAPKLLIYATSFLQSGVPSRFSGSGSGTEYTLTISSLQPEDFATYYCHQRNSFPYTFGQGTKLEIK	%	88
TPP-7793, affinity matured 6C12 Fab (Fab, V domains shown, Tested as Fab) VH: EVQLVQSGAEVKKPGASVKVSCKASGYTFTRYTIHWVRQAPGQGLEWMGYINPSSGYTRYNPKFKGRVTMTRDKSTSTAYMELRSLRSDDTAVYYCWTGTRDYWGQGTTVTVSS VL: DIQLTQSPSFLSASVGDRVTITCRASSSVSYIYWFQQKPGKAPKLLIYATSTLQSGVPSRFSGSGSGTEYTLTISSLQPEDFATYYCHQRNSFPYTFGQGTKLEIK	%	86
TPP-7781, affinity matured 6C12 Fab (Fab, V domains shown, Tested as Fab) VH: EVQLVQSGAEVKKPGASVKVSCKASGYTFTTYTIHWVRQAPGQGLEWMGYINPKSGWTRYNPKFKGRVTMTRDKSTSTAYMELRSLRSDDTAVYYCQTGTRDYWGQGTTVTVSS VL: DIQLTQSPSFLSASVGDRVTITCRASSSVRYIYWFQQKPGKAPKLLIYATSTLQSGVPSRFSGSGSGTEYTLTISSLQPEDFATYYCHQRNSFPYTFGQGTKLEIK	%	61
TPP-7797, affinity matured 6C12 Fab (Fab, V domains shown, Tested as Fab) VH: EVQLVQSGAEVKKPGASVKVSCKASGYTFTTYTIHWVRQAPGQGLEWMGYINPSSGYTRYNPKFKGRVTMTRDKSTSTAYMELRSLRSDDTAVYYCWTGRRDYWGQGTTVTVSS VL: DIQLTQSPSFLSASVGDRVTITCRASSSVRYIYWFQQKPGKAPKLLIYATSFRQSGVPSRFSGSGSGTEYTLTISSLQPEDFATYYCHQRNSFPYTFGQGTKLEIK	%	94
TPP-7792, affinity matured 6C12 Fab (Fab, V domains shown, Tested as Fab with a 6xHIS tag) VH: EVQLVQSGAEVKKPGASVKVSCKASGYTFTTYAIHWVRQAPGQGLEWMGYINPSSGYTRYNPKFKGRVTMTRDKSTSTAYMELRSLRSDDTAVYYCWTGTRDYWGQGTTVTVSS VL: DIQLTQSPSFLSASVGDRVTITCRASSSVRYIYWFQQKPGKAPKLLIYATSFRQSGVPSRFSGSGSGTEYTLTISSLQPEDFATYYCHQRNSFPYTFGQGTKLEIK	%	96
TPP-5906, humanized and germlined 6C12 Fab; VL: (S24R, A26S, S49A, P54Q, F95Y); VH: (I48M, D56G, D66G, L70M, T72R) (Fab, V domains shown, The text says that a 6xHIS tag is present on the Fabs in the peptide ELISA; it is not in the printed chains) VH: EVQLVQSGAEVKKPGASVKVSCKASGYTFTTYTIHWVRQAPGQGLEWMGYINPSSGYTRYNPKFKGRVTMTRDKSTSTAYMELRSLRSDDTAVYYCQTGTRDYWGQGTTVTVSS VL: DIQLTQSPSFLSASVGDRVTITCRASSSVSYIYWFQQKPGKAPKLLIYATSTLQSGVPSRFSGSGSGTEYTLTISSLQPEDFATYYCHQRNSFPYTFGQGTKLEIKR	%	4
TPP-7795, affinity matured 6C12 Fab (Fab, V domains shown, Tested as Fab) VH: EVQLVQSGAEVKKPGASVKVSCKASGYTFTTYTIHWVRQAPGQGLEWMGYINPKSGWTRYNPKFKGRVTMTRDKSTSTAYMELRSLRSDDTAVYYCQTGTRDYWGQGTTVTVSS VL: DIQLTQSPSFLSASVGDRVTITCRASSSVSYIYWFQQKPGKAPKLLIYATSFLQSGVPSRFSGSGSGTEYTLTISSLQPEDFATYYCHQRNSFPYTFGQGTKLEIK	%	63
TPP-7794, affinity matured 6C12 Fab (Fab, V domains shown, Tested as Fab) VH: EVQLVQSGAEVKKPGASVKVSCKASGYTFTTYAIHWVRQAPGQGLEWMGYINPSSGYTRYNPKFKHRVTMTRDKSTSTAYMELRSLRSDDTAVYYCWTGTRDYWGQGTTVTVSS VL: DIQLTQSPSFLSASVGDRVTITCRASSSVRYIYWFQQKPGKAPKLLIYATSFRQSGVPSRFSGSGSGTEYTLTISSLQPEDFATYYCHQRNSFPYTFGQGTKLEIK	%	90
TPP-7782, affinity matured 6C12 Fab (Fab, V domains shown, Tested as Fab) VH: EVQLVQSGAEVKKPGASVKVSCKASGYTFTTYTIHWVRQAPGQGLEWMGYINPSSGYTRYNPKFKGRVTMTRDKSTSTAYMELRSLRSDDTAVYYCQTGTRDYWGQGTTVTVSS VL: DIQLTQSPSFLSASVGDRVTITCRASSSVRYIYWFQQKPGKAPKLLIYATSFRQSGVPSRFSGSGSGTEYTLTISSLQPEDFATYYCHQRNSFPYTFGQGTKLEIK	%	76
